The following compounds are shown together with reported inhibition at 500 µM values.
Molecular target: shikimate dehydrogenase (SaSDH) (Staphylococcus aureus, UniProt Q6GGA5)
Construct: gene aroE
Sequence (Q6GGA5 whole entry): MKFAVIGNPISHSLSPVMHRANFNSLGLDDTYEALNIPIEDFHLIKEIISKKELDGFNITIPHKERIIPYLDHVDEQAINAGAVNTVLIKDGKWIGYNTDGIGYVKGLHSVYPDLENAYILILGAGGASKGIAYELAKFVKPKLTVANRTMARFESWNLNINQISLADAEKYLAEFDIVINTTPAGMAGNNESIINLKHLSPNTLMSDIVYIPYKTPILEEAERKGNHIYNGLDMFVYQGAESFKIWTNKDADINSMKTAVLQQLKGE
Assay: biochemical
Design: SaSDH enzyme activity inhibition screening at 500 uM, 10% DMSO
Give the number; % is assumed, so skip it.

Recorded inhibition at 500 µM, per entry:
Ask | Specify inhibition at 500 µM for COc1cc(C(=O)OCCCCNC(=N)N)cc(OC)c1O [Leonurine] and stop.
Reply | 13

Ask | Specify inhibition at 500 µM for O=c1[nH]cc(Br)cc1[N+](=O)[O-] [5-Bromo-2-hydroxy-3-nitropyridine] and stop.
Reply | 18

Ask | Specify inhibition at 500 µM for O=C1CNCCN1 [2-Oxopiperazine] and stop.
Reply | 13

Ask | Specify inhibition at 500 µM for Nc1ccc(Br)cn1 [2-Amino-5-bromopyridine] and stop.
Reply | 8

Ask | Specify inhibition at 500 µM for OC[C@H]1O[C@@H](OCCc2ccc(O)cc2)[C@H](O)[C@@H](O)[C@@H]1O [Salidroside] and stop.
Reply | 27

Let us move to another entry and its inhibition at 500 µM.
Ask | Specify inhibition at 500 µM for Clc1ccnc(Cl)c1 [2,4-Dichloropyridine] and stop.
Reply | 19
